# System: EGFR Del19/T790M/C797S (H1975-clone #28)
# assay_summary: EGFR degradation HTRF assay, H1975-clone #28 DTC cells
# Format: cell-based
# test_parameters: H1975 # 28 DTC cells; maximum percentage of inhibition (degradation)
The entries below are paired with their reported Dmax (%) H1975 # 28 DTC.
Include the unit right after the number.

Recorded results for 4 molecules are shown here.
| molecule | Dmax (%) H1975 # 28 DTC |
| --- | --- |
| CCc1cc(Nc2ncc(Br)c(Nc3ccc4nc(NC5CC5)ccc4c3P(C)(C)=O)n2)c(OC)cc1N1CCC(N2CCN(CCc3cc(F)c([C@H]4CCC(=O)NC4=O)c(F)c3)CC2)CC1 [Example 653] | 87.89% |
| CCOc1cc(N2CCC(N3CCN(CCc4cc5oc(=O)n(C6CCC(=O)NC6=O)c5cc4F)CC3)CC2)c(CC)cc1Nc1ncc(Br)c(Nc2ccc3nc(CC)ncc3c2P(C)(C)=O)n1 (centres unmarked) [Example 609] | 74.7% |
| CCOc1cc(N2CCC(N3CCN(CC4CN(c5cc(F)c([C@H]6CCC(=O)NC6=O)c(F)c5)C4)CC3)CC2)c(CC)cc1Nc1ncc(Br)c(Nc2ccc3c(=O)n(CC)ncc3c2P(C)(C)=O)n1 [Example 551] | 90.57% |
| CCc1cc(Nc2ncc(Br)c(Nc3ccc4nc(CO)ccc4c3P(C)(C)=O)n2)c(OC)cc1N1CCC(N2CCN(C(=O)[C@@H]3CCN(c4cc(F)c(C5CCC(=O)NC5=O)c(F)c4)C3)CC2)CC1 (some centres unmarked) [Example 696] | 75.49% |

Ask: Dear colleague, I am looking for the recorded Dmax (%) H1975 # 28 DTC of the following molecule: CCOc1cc(N2CCC(N3CCN(CCc4c(C(F)(F)F)ccc5c4oc(=O)n5C4CCC(=O)NC4=O)CC3)CC2)c(CC)cc1Nc1ncc(Br)c(Nc2ccc3nc(CC)ccc3c2P(C)(C)=O)n1 (centres unmarked) [Example 724]
Reply: 75.94%
